measured_on: Angiotensin II receptor (Homo sapiens) (UniProt P30556+P50052)
test_details: In vitro functional antagonistic affinity measured against angiotensin II receptor in paired rings of rabbit aorta
Assay type: tissue-based
cond: Oryctolagus cuniculus, target entry is the homologue from another species
// label = True if pKB is not less than 7, otherwise False

[[record]]
molecule = "COc1ccc2c(O)c(-c3ccccc3)c(=O)n(Cc3ccc(-c4ccccc4C(=O)O)cc3)c2c1"
label_class = "False"

[[record]]
molecule = "CCCCc1c(O)c2ccc(OC)cc2n(Cc2ccc(-c3ccccc3C(=O)O)cc2)c1=O"
label_class = "False"

[[record]]
molecule = "COc1ccc2c(O)c(-c3ccccc3)c(=O)n(Cc3ccc(-c4ccccc4-c4nn[nH]n4)cc3)c2c1"
label_class = "True"

[[record]]
molecule = "O=c1c(Cc2ccccc2)c(O)c2ccccc2n1Cc1ccc(-c2ccccc2-c2nn[nH]n2)cc1"
label_class = "True"

[[record]]
molecule = "COc1ccc2c(O)c(C(C)=O)c(=O)n(Cc3ccc(-c4ccccc4C(=O)O)cc3)c2c1"
label_class = "False"

[[record]]
molecule = "O=c1c(-c2ccccc2)c(O)c2sccc2n1Cc1ccc(-c2ccccc2-c2nn[nH]n2)cc1"
label_class = "True"

[[record]]
molecule = "CCCc1cc2ncnc-2c(O)n1Cc1ccc(-c2ccccc2-c2nn[nH]n2)cc1"
label_class = "True"

[[record]]
molecule = "COc1ccc2c(O)cc(=O)n(Cc3ccc(-c4ccccc4-c4nn[nH]n4)cc3)c2c1"
label_class = "True"

[[record]]
molecule = "CS(=O)(=O)c1ccc2c(O)c(-c3ccccc3)c(=O)n(Cc3ccc(-c4ccccc4-c4nn[nH]n4)cc3)c2c1"
label_class = "False"

[[record]]
molecule = "COc1ccc2c(O)cc(=O)n(Cc3ccc(-c4ccccc4C(=O)O)cc3)c2c1"
label_class = "False"

